All figures here come from ChEMBL document CHEMBL4196201.

This document collects log10 GI50 values reported for Mast/stem cell growth factor receptor Kit (Homo sapiens), P10721 [UNDEFINED MUTATION].
In our notation, the value equals log10 of GI50 in nM.

Consider the following illustrative entries.
Cn1cc(-c2cc3c(N4CCN(c5ncc([C@@](C)(N)c6ccc(F)cc6)cn5)CC4)ncnn3c2)cn1; 1.28
CNC(=O)c1cc(Oc2ccc(NC(=O)Nc3ccc(Cl)c(C(F)(F)F)c3)c(F)c2)ccn1; 1.80

Any idea what its log10 GI50 is? The compound is `Cc1ccc(NC(=O)c2ccc(CN3CCN(C)CC3)cc2)cc1Nc1nccc(-c2cccnc2)n1`
2.33

GET /values?readout=log10 GI50&item= `CCN(CC)CCNC(=O)c1c(C)[nH]c(/C=C2\C(=O)Nc3ccc(F)cc32)c1C`
2.33

GET /values?readout=log10 GI50&item= `COCCOc1cc(F)c2c(Nc3ccc(NC(=O)Cn4cc(C(C)C)nn4)cc3)ncnc2c1`
0.48
